# runDescription: In vitro deprotection under UV light and sunlight, followed by mass spectrometry/TLC and P NMR
# Assay type: physicochemical
# measurementSetup: 125 W/200-400 nm
readoutType: deprotection time of caged G6P(1-OMe) (min)
Field: numeric (min). Do not append units.

>  <compound>
COc1cc(COP(=O)(OCc2cc(OC)c(OC)cc2[N+](=O)[O-])OC[C@H]2O[C@H](OC)[C@H](O)[C@@H](O)[C@@H]2O)c([N+](=O)[O-])cc1OC [DMNB-G6P(1-OMe)]

>  <outputUnit>
min

>  <observedMeasurement>
120

$$$$
>  <compound>
COc1cc(COP(=O)(O)OC[C@H]2O[C@H](OC)[C@H](O)[C@@H](O)[C@@H]2O)c([N+](=O)[O-])cc1OC [Mono-DMNB-G6P(1-OMe)]

>  <outputUnit>
min

>  <observedMeasurement>
75

$$$$
>  <compound>
CO[C@H]1O[C@H](COP(=O)(OCc2ccccc2[N+](=O)[O-])OCc2ccccc2[N+](=O)[O-])[C@@H](O)[C@H](O)[C@H]1O [NB-G6P(1-OMe)]

>  <outputUnit>
min

>  <observedMeasurement>
45

$$$$

response.value for COC1OC(COP(=O)(OC(C)c2ccccc2[N+](=O)[O-])OC(C)c2ccccc2[N+](=O)[O-])C(O)C(O)C1O (mixture of isomers) [NPE-G6P(1-OMe)] (field: deprotection time of caged G6P(1-OMe)) = 45

* * *

# runDescription: In vitro deprotection under UV light and sunlight, followed by mass spectrometry/TLC and P NMR
# Format: physicochemical
# measurementSetup: 125 W/365 nm; 5 mM in phosphate buffer pH 7.4
readoutType: deprotection time (min)
# value in min; strip the unit string

Before answering, review these 2 worked examples.
>  <molecule>
CC(OP(=O)(OCC1O[C@H](O[C@H]2OC(CO)[C@@H](O)C(O)C2O)C(O)C(O)[C@@H]1O)OC(C)c1ccccc1[N+](=O)[O-])c1ccccc1[N+](=O)[O-] (stereo partly shown)

>  <deprotection time / min>
20

$$$$
>  <molecule>
O=[N+]([O-])c1ccccc1COP(=O)(OCc1ccccc1[N+](=O)[O-])OCC1O[C@H](O[C@H]2OC(CO)[C@@H](O)C(O)C2O)C(O)C(O)[C@@H]1O (stereo partly shown)

>  <deprotection time / min>
30

$$$$

// deprotection time lookup, molecule = COc1cc(COP(=O)(O)OCC2O[C@H](O[C@H]3OC(CO)[C@@H](O)C(O)C3O)C(O)C(O)[C@@H]2O)c([N+](=O)[O-])cc1OC (stereo partly shown) , result: 45

Measured deprotection time, COc1cc(COP(=O)(OCc2cc(OC)c(OC)cc2[N+](=O)[O-])OCC2O[C@H](O[C@H]3OC(CO)[C@@H](O)C(O)C3O)C(O)C(O)[C@@H]2O)c([N+](=O)[O-])cc1OC (stereo partly shown) : 60
